Reference source: PubChem BioAssay (NCI)

# Tested on: SF-268 CNS
# ASSAY_NAME: NCI-60 one-dose screen, 48 h (100 = growth as untreated, 0 = no growth, -100 = all killed)
# TEST_CONTEXT: 10 µM unless noted
This is part of a sample that, as a whole, favours compounds with a hit. Of some 83,000 tested, about 20% had one in any assay.
Below, each entry is listed with its recorded growth.
Only the number, expressed in %, is required.

[[record]]
molecule = "Cc1ccc(-c2nc(N3CCN(CC(=O)Nc4ccc(Cl)c(C(F)(F)F)c4)CC3)c3ccccc3n2)cc1"
reading = 81.6


The molecule "O=C(/C=C/c1ccc([N+](=O)[O-])o1)NNC(=O)c1cc2ccccc2cc1O" showed growth equal to -3.99

Measured growth, "COc1ccc2c(c1)c(-c1ccc(-c3cn(C)c4ccc(OC)cc34)o1)cn2C" : 71.8

For reference, reported growth for "Nc1nc2ccccc2c2c(=O)c3cc(F)ccc3sc12" stands at 103

# molecule "O=C(N/N=C/[C@H](O)[C@@H](O)[C@@H](O)[C@H](O)CO)c1ccc(NC(=O)c2cccnc2)cc1" ; its growth = 103

Form: molecule = OC(COc1ccccc1)CN1CCN(c2ccc(Cl)cc2)CC1 (stereo unspecified) ; growth = 99.4

====

# Test system: MOLT-4 leukemia
# ASSAY_NAME: NCI-60 one-dose screen, 48 h (100 = growth as untreated, 0 = no growth, -100 = all killed)
# TEST_CONTEXT: 10 µM unless noted
Compounds without any hit were thinned out: in the full panel of roughly 83,000, 20% have a hit.
Class TRUE: growth at least 90%. Class FALSE: growth below 90%.

Worked examples, 3 compounds total:
[[record]]
compound = "O=c1ccc(N=Nc2ccc([N+](=O)[O-])cc2)ccc1O"
experimental_system = "MOLT-4 leukemia"
assigned_category = "FALSE"

[[record]]
compound = "C=C1C(=O)O[C@H]2[C@H]1CC/C(COC(=O)CCC(=O)NCCOCCOCC(=O)Nc1ccc(OC)c(C(N)=O)c1O)=C\\CC[C@@]1(C)O[C@@H]21"
experimental_system = "MOLT-4 leukemia"
assigned_category = "TRUE"

[[record]]
compound = "COc1ccc(/C=C/c2c(C(=O)/C=C/c3ccc(C(F)(F)F)cc3)c(C)nc3ccccc23)cc1"
experimental_system = "MOLT-4 leukemia"
assigned_category = "FALSE"


*Q* # check: growth of "Cc1ccc(/C=C(\C#N)n2nc3cccc(F)c3n2)cc1" is greater than or equal to 90%
*A* TRUE

*Q* Test whether the compound "c1ccc(CO[C@H]2CO[C@H]3[C@@H]2OC[C@@H]3Oc2ccc(Nc3ncnc4ccsc34)cc2)cc1" records growth of 90% or higher.
*A* FALSE

*Q* Check this compound for growth at or above 90%: "COC(=O)/C=C1\S/C(=N\Nc2ccc([N+](=O)[O-])cc2[N+](=O)[O-])N(C2CCCCC2)C1=O"
*A* FALSE

*Q* Threshold query (growth >= 90%) on "c1ccc2c(-c3nc(-c4c[nH]c5ccncc45)cs3)c[nH]c2c1"
*A* FALSE

*Q* Check the entry "CN(C)CCCNc1nc2ccccc2c2c(=O)c3cc(F)ccc3sc12" : does growth equal or exceed 90%?
*A* FALSE

*Q* Entry "COc1ccc(N)c(N)c1" : is its growth no less than 90%?
*A* TRUE

*Q* Check this compound for growth at or above 90%: COc1ccc(C2C(N)=NNC2c2cccc(O)c2)cc1 (centres undefined)
*A* TRUE

*Q* Does the reported growth for Cc1cccc2c3c(sc12)C(c1ccc(F)cc1)C(C#N)=C(N)O3 (centres undefined) fall at or above the 90% mark?
*A* FALSE

*Q* Does the reported growth for "O=c1[nH]c2c(ccc3cnccc32)c2c1CCC2" fall at or above the 90% mark?
*A* FALSE

*Q* Would you say "O=C1c2cccc3cccc(c23)C(=O)N1Nc1nc(N2CCOCC2)nc(N2CCN(c3ccccc3)CC2)n1" shows growth at minimum 90%?
*A* FALSE
